# Assay procedure: yeast display, Sf9 membrane polyspecificity reagent, FACS + sequencing; frameworks hold sequencing errors
Readout: polyreactivity (PSR sort gate)

- Sequence code: "QVQLVESGGGLVQAGGSLRLSCAASGRTLLSPNAMGWYRQAPGKARELVAVISWSDGSTYYADSVKGRFTISRDNANNTVYLQMNSLKPEDTAVYYSAASDPFEASQYKYDYWGQGTQVTVSS"
  polyreactivity (PSR sort gate): "low polyreactivity"
- Sequence code: "QVQLVESGGGLVQAGGSLRLSCAASGNIFRSYMGWYRQAPGKERELVASISRRGGSTYYADSVKGRFTISRDNAKNTVYLQMNSLKPEDTAVYYCARRWSWVNGVFGYYWGQGTQVTVSS"
  polyreactivity (PSR sort gate): "high polyreactivity"
- Sequence code: "QVLLQESGGGLVQAGGSLRLGCAASGTISPAYYMGRSLQAPGKEREFVAAITYGTNTYYADSVKGRFTISRDNAKNTVYLQMNSLKPEDTAVYYCSATAGYNGAHDYWGQATQVTVSS"
  polyreactivity (PSR sort gate): "low polyreactivity"
- Sequence code: "QVQLVESVGGLVQAGGSLRLSCAASGSISIRNAMGWYRQAPGKERELVAAITYSGGSTYYADSVKGRFTISRDNAKNTVYLQMNSLKPEDTAVYYCNKDTYLATYLYDYWGQGTQVTVSS"
  polyreactivity (PSR sort gate): "low polyreactivity"
- Sequence code: "QVQLVESGGGLVQAGGSLRLSCAASGSIFPVYAMGWYRQAPGKERELVAAISWIGGGTYYADSVKGRFTISRDNAKNTVYLQMNSLKPEDTAVYYCAAVPYTSEYDYWGQGTKVTVSS"
  polyreactivity (PSR sort gate): "high polyreactivity"

Could you now consider this next sequence?
If you can, please state the reported polyreactivity (PSR sort gate) value of "QVQLVESAGCLVQAGASLRLSCAASGGTFRLYAMGWSRQAPGKERELVAAITGSSGGTYYADSVKGRFTISRDNAKNTVYLQMNSLKPEDTAVYYCAASSSYWGQGTQVTVSS" .
low polyreactivity

---

# Assay procedure: yeast display, Sf9 membrane polyspecificity reagent, FACS + sequencing; frameworks hold sequencing errors
Readout: polyreactivity (PSR sort gate)

Worked cases, answers included:
- Sequence code: "QVQLVESGGGLVQAGGSLRLSCAASGRIFRYNAMGWYRQAPGKERELVAAISYRTGSTHYADSVKGRFTISRDNAKNTVYLQMNILKPEDTAVYYCAYVPGYCYWGQGTQVTVSS"
  polyreactivity (PSR sort gate): "low polyreactivity"
- Sequence code: "QVQLVESGGGLVQAGGRLSLSSAASGITFRNYAMGWYRQAPGKERQLVAAISRRGGSTYYADSVKGRFTISRDNAKNTVYLQMNSLKPEDTAVYYCAKSPDTAKEYDYWGQGTQVTVSS"
  polyreactivity (PSR sort gate): "high polyreactivity"
- Sequence code: "QVQLVESGGGLVQAGGSLRLSCAASGIIFGIYDMGWYRQAPGKESELVAAIRRSGGSTYYADSVKGRFTISRDNAKNTVYLQMNSLKPEDTAVYYCAATRHSRVRGGDYWGQGTQVTVSS"
  polyreactivity (PSR sort gate): "low polyreactivity"
- Sequence code: "QVQLVESGGGLVQAGGSLRLSCAASGSIYWINTSMGWYIQAPGKERELVAAITWSSGGTYYADSVKGRFTISRDNAKKTVYLQMNSLKPEDTAVYYCAKVRFFWYRMGYWGQGTQVTVSS"
  polyreactivity (PSR sort gate): "high polyreactivity"

Pending sequence:
Query (sequence): "QVQLVESGGGLVQAGGSLRLSCAASGSTFSEYAMGCYRQAPGKERELVAAITWDGGSTYYPDSVKGRFTISRDNAKNTVYLQMNSLKPEDTAVYYCATDGWSYSYGYWGQGTQVTVSS" ; field requested: polyreactivity (PSR sort gate)
low polyreactivity

---

# Assay procedure: yeast display, Sf9 membrane polyspecificity reagent, FACS + sequencing; frameworks hold sequencing errors
Readout: polyreactivity (PSR sort gate)

- Sequence code: "QVHLVESGGGLVQAGGSLRLSCAASGTIYYVYSMVWYRQAPGKERELVASINKSGGSTYYADSVKWRFTISRDNAKNTVYLQMNSLKREDTAVYYCAARTGWPRVGFQYPAHVGFDYWGQGTQVTVSS"
  polyreactivity (PSR sort gate): "low polyreactivity"
- Sequence code: "QVQHVESRGGLVQAGGSLRLSCAASGFILYLNAMGWYRQAPGKERELVAAITSDGGSTYYADSVKGRFTISRDNAKNTVYLQMNSLKPEDTAVYYCAADNYPDEYDYWGQGTQVTVSS"
  polyreactivity (PSR sort gate): "low polyreactivity"
- Sequence code: "QVQLVESGGGLVQAAGSLRLSCAPSGSIYNYTIGWYRQAPGKERELVAAISRSGTRTYYADSVKGRFTISRDNAKNTVYLQMNSLKPEDTAVYYCAARILPPGDNVDDDYWGQGTQVTVSS"
  polyreactivity (PSR sort gate): "high polyreactivity"
- Sequence code: "QVQLVESGGGLVQAGGSLRLSCAASGSTFDGYAMGWYRQAPGKERELVAAISRSGGRTYYADSVKGRFTISRDNAKNTVYLQMNSLKPEDTAVYYCAALYPYKREDYWGQGTQVTVSS"
  polyreactivity (PSR sort gate): "high polyreactivity"

With those in mind, consider the next sequence.
What does the record list as polyreactivity (PSR sort gate) for "QVQLVESGGGLVQAGGSLRLSCAASGSTFVPNTMGWYRQAPGKERELVAAITYSGGSTYYADSVKGRFTISRDNAKNTVYLQMNSLKPEDTAVYYCAAEGTTWYYDMDYWGQGTQVTVSS" ?
low polyreactivity

---

# Assay procedure: yeast display, Sf9 membrane polyspecificity reagent, FACS + sequencing; frameworks hold sequencing errors
Readout: polyreactivity (PSR sort gate)

For orientation, consider the following solved cases.
- Sequence code: "QVQLVESGGGLVQAGGRLRLSCASSGITFWTYAMGWYRQAPGKERELVAAISKSGGSTYYADSVKGRYTISRDNAKNNVYFELNSLKPEDTAVYYCAAKGLRYRDIDYDYWGQGTQVTVSS"
  Readout: "polyreactivity (PSR sort gate)"
  Val: "low polyreactivity"
- Sequence code: "QVQLVESGGGLVQAGGSLRLSCAASGRTFLEYAMGWYRQAPGKERELVASITWSGDTTYYADSVKGRFTISRDNAKNTVYLQMNSLKPEDTAVYYCAAGYYYPNTYYSYDWYDYWGQGTQVTVSS"
  Readout: "polyreactivity (PSR sort gate)"
  Val: "low polyreactivity"
- Sequence code: "QVQLVESGGGLVQAGGSLRLSCAASGSTLGPYAMGWYRQAPGKERELVATINSSGSTNYADSVKGRFTISRDNAKNPVYLQMNSLKPEDTAVYYCATLHYYYWYDYWGQGTQVTVSS"
  Readout: "polyreactivity (PSR sort gate)"
  Val: "low polyreactivity"
- Sequence code: "HVQLQESGGGLVQAGGSLRLSCAASGNISNSRNMGWYRQAPGKERELVAAIDRGAITYYADSVKGRFTISRDNAKNTVYLQIYSLKPEDTAVYYCAAEYHDRWDHRYWGQGTQVTVSS"
  Readout: "polyreactivity (PSR sort gate)"
  Val: "high polyreactivity"

// switching to the query sequence
Name the reported polyreactivity (PSR sort gate) value associated with the sequence "QVQLVESGGGLVQAGGSLRLSCAASGSIFKYYTMGWYRPAPGKERELVAAITWRGGRTYYADSVKGRFTISRDNAKNTVYLQMNSLKPEDTAVYYCNTASWGFASYYYTYNYWGQGTQVTVSS"
high polyreactivity

---

# Assay procedure: yeast display, Sf9 membrane polyspecificity reagent, FACS + sequencing; frameworks hold sequencing errors
Readout: polyreactivity (PSR sort gate)

- Sequence code: "QVQLVKSGGGLVQAGGSLRLSCAASGSTFNKYTMGWYRQAPWKERELVAAITSGDSTYYADSVKGRFTISRDNAKNTVYLQMNSLKPEDTAVYYCAKSLRAYRHVIYGKALYSWGQGTQVTVSS"
  Val: "low polyreactivity"
- Sequence code: "QDQLEESGGGLDQAGCSLRLSCAASGFTFNYYTMGWYRQAPVKERELVAVITGGGGSTYYADSVKGRFTISRDNAKNTVYLQMNSLKPEDTAVYYCAAYWGGWSFRYLYDYWGQGTQVTGSS"
  Val: "high polyreactivity"
- Sequence code: "QVQLVESGGGLVQAGGSLRLSCAASGFISPQNTMGWYRQAPGKERELVAAITSGGSTYYADSVKGRFTISRDNAKNTVYLLMNSLKPEDTAVYYCASRPYGTWTYGYWGQGTQVTVSS"
  Val: "low polyreactivity"
- Sequence code: "QVQLVESGGGLVQAGGSLRLSCAASGSPFYNYAMGWYRQAPGKERELVAAIRNGGGTNYADSVKGRFTISRDNAKNTVYLQMNSLKPEDTAVYDCNKAYGVSGTGVDYWGQGTQVTVSS"
  Val: "low polyreactivity"

Read the next record carefully.
Which polyreactivity (PSR sort gate) reading was recorded for the sequence "QVQLVESGGRLVQAGGSLRLSCAASGRIFLSYAMGWYRQAPGKERELVAAISRSGGRTYYADSVKGRFTISRDNAKNTVYLQMNSLKPEDTAVYYCNVVVYVLRHYLRYDYWGQGTQVTVSS" ?
high polyreactivity
